target: AP-MK, recombinant protein having alkaline phosphatase (AP) fused to the N-terminal of aa23-121 of MK (human) (UniProt P21741); test: AP-MK binding inhibition assay on TNB1 cells; antibody 10 ug/mL
Sequence (P21741 23-143, form in doubt): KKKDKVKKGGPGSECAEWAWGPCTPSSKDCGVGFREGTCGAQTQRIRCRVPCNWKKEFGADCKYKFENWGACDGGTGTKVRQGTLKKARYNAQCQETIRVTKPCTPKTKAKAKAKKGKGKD
Parameter: relative AP activity (% of wells with AP-MK alone). Scope: all listed entries.
Numbers only; they are read as %.

Q: Report relative AP activity (% of wells with AP-MK alone) for humanized FB54 antibody hFB54 (FB54-rHa/FB54-rKc) (antibody, human IgG1, V domains shown) VH: EVQLVESGGGLVKPGGYLRLSCAASGFTFSSYAMSWVRQAPGKGLDWVATISSGGSYTYYPDSVKGRFTISRDNAKNSLYLQMNSLTDDDTAVYFCARHNYRYDEYYYAMDYWGQGTLVTVSS VL: ETTVTQSPSSLSASVGDRVTIRCITSTDIDDEMNWYQQKPGKGPKLLISEGNTLRPGVPSRFSSSGYGTDFTLTISSLQPEDFATYYCLQSDNLPYTFGQGTKLEIK please.
A: 81.8

Q: Report relative AP activity (% of wells with AP-MK alone) for hFB54-matu062 affinity-improved antibody (IgG) (antibody, V domains shown) VH: EVQLVESGGGLVKPGGYLRLSCAASGFTFSSYAMSWVRQAPGKGLDWVATISSGGSYTYYPDSVKGRFTISRDNAENTLYLQMNSLTNDDTAVYFCARHNYRYDEYYYAMDYWGQGTLVTVSS VL: ETTVTQSPSSLSAFVGGRVAIRCITNIDIDDEMNWYQQKPGKGPKLLISEGNTLRPGVPSRFSSSGYGTDFTLTISSLQPEDFATYYCMQSDNLPYTFGQGTKLEIK please.
A: 28.3

Q: Report relative AP activity (% of wells with AP-MK alone) for mFB54-matu002 affinity-improved antibody (IgG) (antibody, V domains shown) VH: EVMLVESGGGLVKPGGSLKLSCAASGFTFSSYAMSWVRQTPEKRLEWVATISSGGSYTYYPDSVKGRFTISRDNAKNTLYLQMSSLRSEDTAMYFCARHNYRYDEYYYAMDYWGQGTSVTVSS VL: ETTVTQSPTSLSMAIGEKVTIRCTTSIDIDDEMNWYQQMPGEPPKLLISEGNTLRPGVPSRFSSSGYGTDFVFTIENMLSEDVADYYCLQSDNLPYTFGGGTKLEIK please.
A: 18.9

Q: Report relative AP activity (% of wells with AP-MK alone) for hFB54-matu014 affinity-improved antibody (IgG) (antibody, V domains shown) VH: EVQLVESGGGLVKPGGYLRLSCAASGFTFSSYAMSWVRQTPGKGLDWVATISSGGSYTYYPDSVKGRFTISRDNVKNSLYLQMNSLTDDDTAVYFCARHNYRYDEYYYAMDYWGQGTLVTVSS VL: ETTVTQSPSSLSASVGDRVTIRCITNIDIDDEMNWYQQKPGKGPKLLISEGNTLRPGVPSRFSSSGYGTDFTLTISSLQPEDFATYYCLQSDNLPYTFGRGTKLEIK please.
A: 25.6

Q: Report relative AP activity (% of wells with AP-MK alone) for hFB54-matu072 affinity-improved antibody (IgG) (antibody, V domains shown) VH: EVQLVESGGGLVKPGGYLRLSCAASGFTFSSYAMSWVRQAPGKGLDWVATISSGGSYTYYPDNVKGRFTISRDNAKNSLYLQMNSLTDDDTAVYFCARHNYRYDEYYHAMDYWGQGTLVTVSS VL: ETTVTQSPSSLFASVGDKVTIRCITSIDIDDEMNWYQQKPGKGPKLLISEGNTLRPGVPSRFSSSGYGTDFTLTISSLQPEDFATYYCLQSDNLPYTFGQGTKLEIK please.
A: 33

Q: Report relative AP activity (% of wells with AP-MK alone) for hFB54-matu039 affinity-improved antibody (IgG) (antibody, V domains shown) VH: EVRLVESGGGLVKPGGYLRLSCAASGFTFSSYAMSWVRQAPGKGLDWVATISSGGSYTYYPDSVKERFTISRDNAKNSLYLQMNSLTDDDTAVYFCARHNYRYDEYYYGMDYWGQGTLVTVSS VL: ETTVTQSPSSLSASVGDRVTIRCKTSIDIDDEMNWYQQKPGKGPKLLISEGNTLRPGVPSRFSSSGYGTDFTLTISSLQPEDFATYYCLQSDNLPYTFGQGTKLGIK please.
A: 30.1

Q: Report relative AP activity (% of wells with AP-MK alone) for mFB54-matu089 affinity-improved antibody (IgG) (antibody, V domains shown) VH: EVMLVESGGGLVEPGGSLKLSCTVSGFTFSSYAMSWVRQTPEKRLEWVATISSGGSYTYYPDSVKGRFTISRDNAKNTLYLQMSSLRSEDTAMYFCARHNYRYDEYYYAMDYWGHGTSVTVSS VL: ETTVTQSPTSLSMAIGEKVTIRCITSIDIDDEMNWYQQKPGEPPKLLISEGNTLRPGVPSRFSSSGYGTDFVFTIENVLSEDVADYYCLQSDNLPYTFGGGTKLEIK please.
A: 20
